These data points were gathered from ChEMBL document CHEMBL1961873.

The following compounds are listed with their measured inhibition values.
# tgt: Serine/threonine-protein kinase PAK 5 (Homo sapiens) (UniProt Q9P286)
# Sequence (Q9P286 whole entry, looked up): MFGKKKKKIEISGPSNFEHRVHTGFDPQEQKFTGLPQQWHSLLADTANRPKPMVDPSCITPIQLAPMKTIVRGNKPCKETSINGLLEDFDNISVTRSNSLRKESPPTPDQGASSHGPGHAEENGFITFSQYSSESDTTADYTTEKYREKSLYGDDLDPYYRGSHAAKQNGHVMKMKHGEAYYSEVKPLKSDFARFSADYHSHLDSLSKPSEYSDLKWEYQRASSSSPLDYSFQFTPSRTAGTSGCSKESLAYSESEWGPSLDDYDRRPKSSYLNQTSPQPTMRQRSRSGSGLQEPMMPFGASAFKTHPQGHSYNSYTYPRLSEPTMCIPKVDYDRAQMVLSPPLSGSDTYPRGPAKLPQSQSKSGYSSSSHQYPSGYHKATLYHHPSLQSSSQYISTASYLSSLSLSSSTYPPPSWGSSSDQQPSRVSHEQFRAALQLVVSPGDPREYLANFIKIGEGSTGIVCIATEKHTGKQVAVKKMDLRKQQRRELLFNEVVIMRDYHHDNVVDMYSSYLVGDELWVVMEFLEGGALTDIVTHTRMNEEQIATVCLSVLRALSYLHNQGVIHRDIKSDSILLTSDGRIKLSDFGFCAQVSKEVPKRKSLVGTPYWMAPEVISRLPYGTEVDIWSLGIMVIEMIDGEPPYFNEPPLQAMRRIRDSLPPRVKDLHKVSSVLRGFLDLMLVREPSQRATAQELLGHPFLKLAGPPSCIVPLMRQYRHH
# statedConditions: at 0.1 µM
// units = %; emit number, no label

# compound, dataValue
records = [
    ("O=C(Nc1n[nH]c2nc(-c3ccco3)ccc12)C1CC1", 5.55),
    ("COc1ccc2cc(-c3c(-c4ccncc4)nc(-c4ccc([S+](C)[O-])cc4C)n3C)ccc2c1 (stereo unspecified)", -5.87),
    ("Fc1ccc(-c2c(-c3ccncc3)nc3n2CCS3)cc1", 1.47),
]

Ask | # returns recorded inhibition (system: Serine/threonine-protein kinase PAK 5 (Homo sapiens) (UniProt Q9P286)) for O=C1NC(=O)C(c2cccc(Cl)c2)=C1Nc1ccc(Cl)c(C(=O)O)c1
Reply | 0.06

Ask | Find the measured inhibition: item CCS(=O)(=O)c1ccc(OC)c(Nc2ncc(-c3cccc(-c4ccccc4F)c3)o2)c1 , target or system Serine/threonine-protein kinase PAK 5 (Homo sapiens) (UniProt Q9P286).
Reply | 6.6

Ask | State its inhibition on Serine/threonine-protein kinase PAK 5 (Homo sapiens) (UniProt Q9P286): C#Cc1cccc(Nc2ncnc3ccc(OCCCCNCCS(C)(=O)=O)cc23)c1
Reply | 2.62

Ask | Find the measured inhibition: item O=C(Nc1n[nH]c2nc(-c3ccc(O)cc3)c(Br)cc12)C1CC1 , target or system Serine/threonine-protein kinase PAK 5 (Homo sapiens) (UniProt Q9P286).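 Further: values are mean percent inhibition of PAK5 from a kinase inhibitor set screen.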
Reply | 1.12
